protocol details: physchem
test context: water
quantity: solubility (mg/mL)

CN1C(C(=O)Nc2ccccn2)=C(O)c2ccccc2S1(=O)=O : 26.5

(P) CC(C)Cc1ccc(C(C)C(=O)O)cc1 (stereo not shown)
(Q) COc1ccc2c(c1)c(CC(=O)O)c(C)n2C(=O)c1ccc(Cl)cc1
(R) CN1C(C(=O)Nc2ccccn2)=C(OCCO)c2ccccc2S1(=O)=O
Query: Sort the compounds on solubility; start with the lowest figure. Reply: labels, ordered per the request.
Response: P, Q, R
(P: 0.3 mg/mL, Q: 0.7 mg/mL, R: 470 mg/mL)
